test_description: self-splicing fitness, log relative to wild type (ln ratio); higher = more splicing; Tetrahymena group I intron in knt gene, E. coli kanamycin selection, DiMSum; sequences stand for … in CUCUCU…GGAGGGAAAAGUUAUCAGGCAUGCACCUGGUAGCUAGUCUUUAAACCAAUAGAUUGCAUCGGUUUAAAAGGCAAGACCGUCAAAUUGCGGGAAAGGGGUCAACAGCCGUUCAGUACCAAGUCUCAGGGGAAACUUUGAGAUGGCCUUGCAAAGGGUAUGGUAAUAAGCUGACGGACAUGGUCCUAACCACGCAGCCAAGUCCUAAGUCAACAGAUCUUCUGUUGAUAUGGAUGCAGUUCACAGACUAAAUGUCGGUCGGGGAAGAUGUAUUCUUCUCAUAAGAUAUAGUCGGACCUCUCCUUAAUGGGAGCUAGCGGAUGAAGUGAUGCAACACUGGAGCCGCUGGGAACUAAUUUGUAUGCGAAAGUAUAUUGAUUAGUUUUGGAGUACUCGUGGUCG;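 note: selection with 25 µg/mL kanamycin versus none on LB agar overnight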
condition_info: 37 °C
// class assignment uses self-splicing fitness (ln) with these ranges: L: < -2; M: ≥ -2 and < -1; H: ≥ -1

As a guide, the following entries are already answered.
Form: Item = UCUCAGCAAUAUUACGGCCA ; Class = ?
M

Class for ACACAGCAAUAUUACGUCGG ?
M

Continuing:
Determine which band this sequence sits in: GAUGAGCAAUAUUACGUCUG
L

Form field 'band' for AUUGAGCAAUAUUACGCGUU
L

Band assignment needed for AUAAAGCAAUAUUACGGCAC please.
H

Hello team, could you let me know which band the following sequence falls into: AUAUAGCAAUAUUACGAAGU
M

# bin label for CAUUAGCAAUAUUACGCAAA
L

Measured values drawn from the supplement of paper PMC7877785 for this set.
